These measurements were taken from ChEMBL document CHEMBL1772954.

- Test system: Aspergillus niger
- test details: Antifungal activity against Aspergillus niger ATCC 9029
- Format: functional
metric name: MFC (µg/mL)
Enter your answer as a number in µg/mL; do not include the unit.

Short answer for CN1C(=O)C=CC1=O : MFC was 15.6

Short answer for O=C1C(Cl)=C(Cl)C(=O)N1CCCc1ccccc1 : MFC was 15.6

Short answer for O=C1C(Cl)=C(Cl)C(=O)N1Cc1ccccc1 : MFC was 62.5

Short answer for CC1=CC(=O)N(Cc2ccccc2)C1=O : MFC was 125

Short answer for COc1ccc(N2C(=O)C=CC2=O)cc1OC : MFC was 125

Short answer for CC1=CC(=O)N(c2ccccc2)C1=O : MFC was 250

Short answer for O=C1C=CC(=O)N1CCCc1ccccc1 : MFC was 15.6
